Where do these numbers come from? They come from patent US4515708A.

assay: Corrosion Test 4 (dynamic wheel test; 3 wt% brine + Mentor 28; H2S); conditions: 2 ppm; 24 h, 70° C.
VALUE_TYPE: % Protection (%)
Please give a number only; it is taken to be in %.

CCCCCCCCCCNCCc1ccccn1: 0
CCCCCCCCCCCCN(CCc1ccccn1)CCc1ccccn1: 2
CCCCCCCCCCCCNCCc1ccccn1: 20
CCCCCCNCCc1ccccn1: 0
NCCNCCNCCc1ccncc1: 20

Provide measured % Protection value, entry: `NCCNCCNCCNCCc1ccccn1`
10

Report % Protection, nothing else, for this compound: `CCCCCCCCCCCCCCCCCCNCCc1ccncc1`
2

###

assay: Corrosion Test 1 (dynamic wheel test; 3 wt% brine/Mentor 28; CO2 + H2S); conditions: 10 ppm; * active material added as undiluted compound; 24 h, 70° C.
VALUE_TYPE: % Protection (%)
Lab book: enter the figure in %, no units written.

These recorded examples may help you get a feel for the data.
NCCNCCc1ccccn1: 67
c1ccc(CNCCc2ccccn2)cc1: 53
CCCCCCCCNCCc1ccccn1: 82

Give % Protection for the following compound: `NCCCNCCc1ccccn1`
70

###

experiment: Emulsion Test (3 wt% brine / heptane); type: physicochemical; conditions: 1 ml of 35 wt% IPA solution, 50 ml 3 wt% brine, 50 ml heptane
VALUE_TYPE: Time to break emulsion (min)
Quick reminder: number only, in min, skip the unit.

Recorded Time to break emulsion, per entry:
CCCCCCNCCc1ccncc1: 1
NCCCNCCc1ccncc1: 1
NCCNCCNCCc1ccccn1: 10
CCCCCCCCNCCc1ccncc1: 10
CCCCCCN(CCc1ccncc1)CCc1ccncc1: 1

Give reported Time to break emulsion value for `CCCCCCCCNCCc1ccccn1`
5

Please look at this compound and report its Time to break emulsion: `CCCCCCNCCc1ccccn1`
30

###

Each entry below carries its reported Time to break emulsion.
experiment: Emulsion Test (3 wt% brine / heptane); format: physicochemical; settings: 1 ml of 35 wt% IPA solution, 50 ml 3 wt% brine, 50 ml heptane

Record excerpt, results attached:
CCCCCCCCCCCCN(CCc1ccncc1)CCc1ccncc1 [Example 39]: > 30 min
CCCCCCCCCCCCNCCc1ccccn1 [Example 4]: > 30 min
NCCNCCNCCNCCc1ccccn1 [Example 16]: 10 min

Supply reported Time to break emulsion belonging to this compound: NCCNCCNCCNCCc1ccncc1 [Example 35]
1 min

Find the measured Time to break emulsion of CCCCCCCCCCCCCCCCCCNCCc1ccccn1 [Example 7] and report it.
> 30 min

For the compound NCCNCCc1ccncc1 [Example 32] , give its measured Time to break emulsion value.
> 30 min

Please give the documented Time to break emulsion of c1ccc(CNCCc2ccccn2)cc1 [Example 8]
> 30 min

// fetch Time to break emulsion given entry NCCNCCNCCc1ccncc1 [Example 34]
1 min

Consider the compound CCCCCCCCCCNCCc1ccncc1 [Example 24] and give its recorded Time to break emulsion.
> 30 min

Tell me Time to break emulsion reported for CCCCCCCCCCCCCCNCCc1ccncc1 [Example 26]
> 30 min

###

experiment: Corrosion Test 1 (dynamic wheel test; 3 wt% brine/Mentor 28; CO2 + H2S); settings: 50 ppm; 24 h, 70° C.; 30% solution
# Lookup of reported % Protection keyed by entry
Entry rule: numbers only, all in %.

Solved entries:
CCCCCCCCCCNCCc1ccccn1: 82
CCCCCCN(CCc1ccncc1)CCc1ccncc1: 79
CCCCCCNCCc1ccccn1: 79
c1ccc(CNCCc2ccccn2)cc1: 81
c1ccc(CNCCc2ccncc2)cc1: 60

Answer with reported % Protection of `NCCNCCNCCNCCc1ccccn1`
81

Provide measured % Protection value, entry: `NCCNCCNCCc1ccccn1`
80

Give the measured % Protection for CCc1ccccn1 [2-ethylpyridine, reference compound]
16

Determine from records and report % Protection for `NCCNCCNCCc1ccncc1`
66

Output % Protection of `CCCCCCCCCCCCN(CCc1ccccn1)CCc1ccccn1`
77

Check the records and state % Protection for CCCCCCCCCCCCNCCc1ccccn1 [Example 4]
93

Identify measured % Protection associated with `CCCCCCCCCCCCCCNCCc1ccccn1`
46

###

Experiment: Corrosion Test 3 (dynamic wheel test; 3 wt% brine + Mentor 28; CO2 only)
Conditions: 2 ppm; 24 h, 70° C.
Description: For each compound three mild steel coupons (approximately 100 mm×12 mm×1.5 mm) were tested at each concentration. Each was contacted in a 250 ml bottle with 200 ml of a test fluid either saturated with a carbon dioxide at 20° C. or containing 100 ppm hydrogen sulphide or having both CO2 and H2 S present in those amounts. […] The weight loss was obtained, and also measured in a control experiment where no inhibitor was present. From this the % protection was calculated as % reduction in weight loss. […]
Measured % Protection accompanies every entry in the list below.
Just the number please, in %, no unit attached.

// worked examples, % Protection included
CCCCCCCCCCCCNCCc1ccncc1: 10
CCCCCCCCCCCCNCCc1ccccn1: 0

Give a short answer stating reported % Protection for `CCCCCCCCCCCCCCCCCCNCCc1ccccn1` .
2

Identify % Protection associated with the molecule `CCCCCCNCCc1ccncc1`
9

For the molecule `CCCCCCCCCCCCN(CCc1ccncc1)CCc1ccncc1` , report % Protection.
9

Entry `NCCNCCc1ccccn1` needs its % Protection filled in; supply it.
0

Indicate the recorded % Protection value for this molecule: `NCCNCCNCCc1ccncc1`
6

# return recorded % Protection for input `CCCCCCCCCCCCCCCCCCNCCc1ccncc1`
8

Complete the entry with % Protection for `c1ccc(CNCCc2ccccn2)cc1`
13

###

assay: Corrosion Test 2 (dynamic wheel test; 3 wt% brine; CO2 + H2S); details: 2 ppm; 24 h, 70° C.
Label true when % Protection is at or above 40%; anything below gets false.

CCCCCCCCCCCCCCCCNCCc1ccccn1 [Example 6]: false
NCCNCCNCCNCCc1ccccn1 [Example 16]: false
c1ccc(CNCCc2ccccn2)cc1 [Example 8]: false

Record NCCNCCNCCc1ccccn1 [Example 15] ; criterion: % Protection no lower than 40%. Met?
false

Hi, just wondering whether CCCCCCCCCCCCCCCCCCNCCc1ccccn1 [Example 7] shows % Protection of 40% or higher.
true

###

// reported % Protection for each item listed
Experiment: Corrosion Test 1 (dynamic wheel test; 3 wt% brine/Mentor 28; CO2 + H2S)
Conditions: 10 ppm; 24 h, 70° C.; 30% solution
Procedure: For each compound three mild steel coupons (approximately 100 mm×12 mm×1.5 mm) were tested at each concentration. Each was contacted in a 250 ml bottle with 200 ml of a test fluid either saturated with a carbon dioxide at 20° C. or containing 100 ppm hydrogen sulphide or having both CO2 and H2 S present in those amounts. […] The weight loss was obtained, and also measured in a control experiment where no inhibitor was present. From this the % protection was calculated as % reduction in weight loss. […]
I only need the number, in %, no unit after it.

For the compound `CCCCCCCCCCCCN(CCc1ccccn1)CCc1ccccn1` , give its reported % Protection.
71

###

assay: Emulsion Test (3 wt% brine / heptane); type: physicochemical; details: hydrocarbon layer; 50 ml 3 wt% brine/50 ml heptane
VALUE_TYPE: Appearance after 30 mins, hydrocarbon

// solved cases for Appearance after 30 mins, hydrocarbon follow
NCCNCCNCCc1ccccn1: clear
NCCNCCNCCNCCc1ccccn1: clear
CCCCCCCCCCCCCCCCCCNCCc1ccncc1: hazy
CCCCCCCCCCCCN(CCc1ccncc1)CCc1ccncc1: hazy
CCCCCCCCCCCCCCCCNCCc1ccccn1: hazy
CCCCCCCCCCCCNCCc1ccccn1: hazy
c1ccc(CN(CCc2ccccn2)CCc2ccccn2)cc1: clear
CCCCCCNCCc1ccncc1: clear

Name the recorded Appearance after 30 mins, hydrocarbon of the item `CCCCCCCCCCCCN(CCc1ccccn1)CCc1ccccn1` in your answer.
hazy

Give reported Appearance after 30 mins, hydrocarbon value for `CCCCCCNCCc1ccccn1`
clear

Assign Appearance after 30 mins, hydrocarbon to the following record: `CCCCCCCCNCCc1ccccn1`
clear

Give reported Appearance after 30 mins, hydrocarbon value for `c1ccc(CNCCc2ccccn2)cc1`
clear

Recall and state the measured Appearance after 30 mins, hydrocarbon for `NCCNCCNCCc1ccncc1` .
clear

Assign Appearance after 30 mins, hydrocarbon to the following record: `CCCCCCCCCCCCCCCCNCCc1ccncc1`
clear

State its Appearance after 30 mins, hydrocarbon: `NCCCNCCc1ccncc1`
clear

Determine its reported Appearance after 30 mins, hydrocarbon: `CCCCCCN(CCc1ccncc1)CCc1ccncc1`
clear

###

experiment: Solubility Test (35 wt% solution in isopropylalcohol shaken with water, brine or heptane); type: physicochemical; details: 0.3 ml of 35 wt% IPA solution in 10 ml water; observed after 30 minutes and 24 hours
VALUE_TYPE: SOLUBILITY IN: Water

Worked cases, answers included:
CCCCCCCCCCNCCc1ccccn1 [Example 3]: S
CCCCCCCCCCCCCCCCCCNCCc1ccncc1 [Example 28]: S
CCCCCCCCCCCCCCCCNCCc1ccccn1 [Example 6]: S
c1ccc(CNCCc2ccccn2)cc1 [Example 8]: S
NCCNCCNCCc1ccccn1 [Example 15]: S
CCCCCCCCCCCCNCCc1ccccn1 [Example 4]: S
NCCCNCCc1ccncc1 [Example 33]: S
NCCNCCNCCc1ccncc1 [Example 34]: S
NCCNCCNCCNCCc1ccncc1 [Example 35]: S
CCCCCCCCCCNCCc1ccncc1 [Example 24]: S

Fill in reported SOLUBILITY IN: Water for this entry: c1ccc(CN(CCc2ccccn2)CCc2ccccn2)cc1 [Example 20]
S

Look up and state reported SOLUBILITY IN: Water for CCCCCCCCCCCCCCCCNCCc1ccncc1 [Example 27]
S
